tested_on: Factor X (FX), P00742
Sequence (P00742 whole entry, looked up): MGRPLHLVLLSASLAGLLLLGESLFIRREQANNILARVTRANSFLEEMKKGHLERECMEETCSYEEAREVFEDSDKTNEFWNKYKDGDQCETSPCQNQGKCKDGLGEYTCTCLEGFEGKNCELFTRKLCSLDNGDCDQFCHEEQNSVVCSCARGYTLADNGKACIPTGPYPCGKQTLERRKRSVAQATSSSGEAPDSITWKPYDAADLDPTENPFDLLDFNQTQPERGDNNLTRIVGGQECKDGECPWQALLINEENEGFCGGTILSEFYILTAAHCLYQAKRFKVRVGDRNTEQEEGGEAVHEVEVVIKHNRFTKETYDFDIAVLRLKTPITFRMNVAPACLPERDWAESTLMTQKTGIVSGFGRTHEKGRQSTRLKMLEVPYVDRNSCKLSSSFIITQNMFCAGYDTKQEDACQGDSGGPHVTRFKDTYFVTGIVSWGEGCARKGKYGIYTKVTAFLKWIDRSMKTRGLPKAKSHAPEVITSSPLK
measure_name: kcat/KM for FX activation (Xase assay with FVIIIa, PC/PS vesicles, Ca2+)

>>> data_value("FIXa-D203N/F205T/R318Y (protein) chain 1: YNSGKLEEFVQGNLERECMEEKCSFEEAREVFENTERTTEFWKQYVDGDQCESNPCLNGGSCKDDINSYECWCPFGFEGKNCELDVTCNIKNGRCEQFCKNSADNKVVCSCTEGYRLAENQKSCEPAVPFPCGRVSVSQTSKLTR chain 2: VVGGEDAKPGQFPWQVVLNGKVNATCGGSIVNEKWIVTAAHCVETGVKITVVAGEHNIEETEHTEQKRNVIRIIPHHNYNAAINKYNHDIALLELDEPLVLNSYVTPICIADKEYTNIFLKFGSGYVSGWGRVFHKGYSALVLQYLRVPLVDRATCLRSTKFTIYNNMFCAGFHEGGRDSCQGDSGGPHVTEVEGTSFLTGIISWGEECAMKGKYGIYTKVSRYVNWIKEKTKLT")
"2e+07 M⁻¹ s⁻¹"
